Molecular target: Stb4 (UniProt P50104)
Sequence (P50104 whole entry): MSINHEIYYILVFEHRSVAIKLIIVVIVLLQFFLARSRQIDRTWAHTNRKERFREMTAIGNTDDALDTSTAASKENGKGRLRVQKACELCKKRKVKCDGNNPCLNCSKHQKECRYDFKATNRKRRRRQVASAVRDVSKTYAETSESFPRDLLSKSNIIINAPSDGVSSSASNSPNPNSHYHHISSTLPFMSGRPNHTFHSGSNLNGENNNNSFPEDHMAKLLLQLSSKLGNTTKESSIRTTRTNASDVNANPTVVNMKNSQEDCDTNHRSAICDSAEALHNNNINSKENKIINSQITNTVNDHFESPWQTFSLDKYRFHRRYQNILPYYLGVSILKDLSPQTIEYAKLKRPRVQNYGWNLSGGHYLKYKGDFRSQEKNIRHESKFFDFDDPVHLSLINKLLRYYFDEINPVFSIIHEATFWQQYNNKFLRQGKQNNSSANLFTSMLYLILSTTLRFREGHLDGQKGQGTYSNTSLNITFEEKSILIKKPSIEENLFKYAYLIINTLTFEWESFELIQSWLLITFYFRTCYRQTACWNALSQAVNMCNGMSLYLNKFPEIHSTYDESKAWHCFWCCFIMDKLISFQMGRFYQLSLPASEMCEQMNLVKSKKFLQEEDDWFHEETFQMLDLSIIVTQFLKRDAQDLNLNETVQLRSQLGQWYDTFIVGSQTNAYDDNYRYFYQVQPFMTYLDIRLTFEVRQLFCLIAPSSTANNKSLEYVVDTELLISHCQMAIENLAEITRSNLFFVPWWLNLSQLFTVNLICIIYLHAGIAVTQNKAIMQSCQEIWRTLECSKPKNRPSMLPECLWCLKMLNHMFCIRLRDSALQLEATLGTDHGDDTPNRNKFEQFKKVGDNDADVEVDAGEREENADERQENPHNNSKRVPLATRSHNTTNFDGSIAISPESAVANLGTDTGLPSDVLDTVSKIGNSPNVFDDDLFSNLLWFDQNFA
Assay: PBM E-score (8-mer binding enrichment) (E-score (-0.5 to 0.5)); higher = stronger / more preferred TF binding
Details: protein concentration: 200 nM; construct: GST-DNA-binding domain
In all, about 33,000 sequences were measured (“E-score (-0.5 to 0.5)”: median about -0.056, highest 2% from about 0.38 on). What follows is part of a selection rich in the highest values, with near analogues and random picks from the rest.
Binary classification by PBM E-score, with 0.3 as an inclusive lower bound for criterion met; all other cases are criterion not met.

primary-sequence	category
AACGACGT	criterion not met
TGGATGAA	criterion not met
GTTCCGAA	criterion met
CTCTTAAC	criterion not met
ATCGGCAC	criterion met
ATTATGGG	criterion not met
CCGAGGGA	criterion met
AGCTGGAT	criterion not met
ACATCCCA	criterion not met
CCCTCGTC	criterion not met
CCACTGGG	criterion not met
AAGGGGTC	criterion not met
GGTTCGCA	criterion not met
ATTGCCGC	criterion not met
AACTAAGT	criterion not met
AGAGGGCA	criterion not met
ACCTCGTG	criterion not met
CCGAAAGC	criterion met
AGAGAACT	criterion not met
GATAGTTA	criterion not met
GTCGGCAC	criterion met
AATACTGG	criterion not met
GCCGACGA	criterion not met
AAGGCCTA	criterion not met
ACTTTTCG	criterion not met
AACCGCCG	criterion not met
CGTTCGGA	criterion met
GGCAGGCA	criterion not met
GCTACCCC	criterion not met
CCATCCGG	criterion met
CCATCCGC	criterion not met
ATTCCGAG	criterion met
AATTCCGA	criterion met
ACATCCGG	criterion met
CTTCCGAA	criterion met
ATTCCGCA	criterion not met
CCTTTCAA	criterion not met
ATTAACAC	criterion not met
CTCGGCCA	criterion not met
CCGAAAGA	criterion met
CCATAAGG	criterion not met
ACCTCGTC	criterion not met
TCATCCGA	criterion met
CTAGGCAG	criterion not met
TCCGACCA	criterion met
CACGGCAA	criterion not met
ATCGGCAG	criterion met
ATCGAACC	criterion not met
CTTCCGCA	criterion met
GAGGTTCA	criterion not met
CCATTGGA	criterion not met
GACAAGTA	criterion not met
GAGCCTGC	criterion not met
CTCGGCAG	criterion met
ACCTCGTA	criterion not met
GGGCATGA	criterion not met
CTCGGCAC	criterion met
GGTTCGAA	criterion not met
CTTGCCGC	criterion not met
CTCGGCAA	criterion met
GTTGCCAA	criterion not met
ATCACGAC	criterion not met
TATTCCCA	criterion not met
CATTCCGG	criterion met
ACCTCGAA	criterion not met
AGCATACT	criterion not met
ACGATACG	criterion not met
GTTGCCGA	criterion met
CGTATTGA	criterion not met
CTTGCCTA	criterion not met
ACGGCCAG	criterion not met
CGTTCGGC	criterion met
ACCGACCA	criterion not met
CAGAGGGC	criterion not met
ATTCCGTA	criterion not met
TCCGACGA	criterion met

---

Below is a list of entries, each paired with its recorded PBM E-score value.
Biological target: Stb4 (UniProt P50104)
Test: PBM E-score (8-mer binding enrichment) (E-score (-0.5 to 0.5)); higher = stronger / more preferred TF binding
Details: protein concentration: 200 nM; construct: GST-DNA-binding domain
Over roughly 33,000 sequences, “E-score (-0.5 to 0.5)” has its median near -0.056; the highest 2% begin near 0.38. For the sample, the highest values were picked, then their nearest neighbours and some sequences at random.

primary-sequence	target	PBM E-score
AGTCCCGA	Stb4 (UniProt P50104)	0.389
AGTCCCGC	Stb4 (UniProt P50104)	0.15
CTCGGTTA	Stb4 (UniProt P50104)	0.44
AGCGCTCA	Stb4 (UniProt P50104)	-0.191
TATGACGA	Stb4 (UniProt P50104)	-0.111
CCCCGGAA	Stb4 (UniProt P50104)	0.27
GGTTCCAA	Stb4 (UniProt P50104)	0.196
ACGAGGTC	Stb4 (UniProt P50104)	-0.278
CCTTTGTC	Stb4 (UniProt P50104)	-0.141
AGTCCCGG	Stb4 (UniProt P50104)	0.304
GTCGGTTA	Stb4 (UniProt P50104)	0.343
CCAGCCCC	Stb4 (UniProt P50104)	-0.0533
GATCGGAC	Stb4 (UniProt P50104)	0.392
CGCCTGCC	Stb4 (UniProt P50104)	-0.0366
GGTCCCGA	Stb4 (UniProt P50104)	0.39
CTGCTAGC	Stb4 (UniProt P50104)	-0.23
TATCGGAA	Stb4 (UniProt P50104)	0.431
GGTTCCGA	Stb4 (UniProt P50104)	0.468
ATCGGTTA	Stb4 (UniProt P50104)	0.368
ACTTCGCG	Stb4 (UniProt P50104)	0.116
CAAAATCA	Stb4 (UniProt P50104)	-0.00631
CCTTCGAA	Stb4 (UniProt P50104)	-0.117
ATCGGTAA	Stb4 (UniProt P50104)	0.336
GATTATCA	Stb4 (UniProt P50104)	0.0201
CAAAATAC	Stb4 (UniProt P50104)	-0.00837
AGCTGTGC	Stb4 (UniProt P50104)	-0.148
AAAGGGGA	Stb4 (UniProt P50104)	-0.22
CGTCCCAA	Stb4 (UniProt P50104)	-0.155
AGTTCCAG	Stb4 (UniProt P50104)	-0.136
CCGAGGTC	Stb4 (UniProt P50104)	0.424
CAATGCCA	Stb4 (UniProt P50104)	-0.241
ATAGCGGG	Stb4 (UniProt P50104)	0.0172
CTCGGTAA	Stb4 (UniProt P50104)	0.431
CCTTCGGA	Stb4 (UniProt P50104)	0.474
GCCCGGAA	Stb4 (UniProt P50104)	0.423
ACCAGCCA	Stb4 (UniProt P50104)	-0.0271
GCTTCGTA	Stb4 (UniProt P50104)	-0.25
CCGCGATC	Stb4 (UniProt P50104)	0.142
CCTTCAAG	Stb4 (UniProt P50104)	-0.097
CGTGACTA	Stb4 (UniProt P50104)	-0.158
ACTTCGCC	Stb4 (UniProt P50104)	-0.0357
ATCTCCGG	Stb4 (UniProt P50104)	0.345
CAATTTCG	Stb4 (UniProt P50104)	0.0914
CCTTCGCA	Stb4 (UniProt P50104)	-0.236
ACTTCGGG	Stb4 (UniProt P50104)	0.407
AAGATCCC	Stb4 (UniProt P50104)	0.126
GTACTGAC	Stb4 (UniProt P50104)	-0.0527
AGTTCCGG	Stb4 (UniProt P50104)	0.419
AATCGGCC	Stb4 (UniProt P50104)	0.191
CAATGCGG	Stb4 (UniProt P50104)	0.0433
GAGTCCCA	Stb4 (UniProt P50104)	0.116
GATGCGAC	Stb4 (UniProt P50104)	0.0109
CGTTCCTA	Stb4 (UniProt P50104)	-0.00632
ACAACCTC	Stb4 (UniProt P50104)	-0.114
CTACGAGC	Stb4 (UniProt P50104)	-0.133
CCACTGCA	Stb4 (UniProt P50104)	-0.135
CGATACTC	Stb4 (UniProt P50104)	0.065
AAGCAAAC	Stb4 (UniProt P50104)	-0.0582
TAATCCGA	Stb4 (UniProt P50104)	0.39
CAGCGGTC	Stb4 (UniProt P50104)	-0.186
GCCCGGGA	Stb4 (UniProt P50104)	0.308
CGATGATA	Stb4 (UniProt P50104)	0.122
CATCGGAA	Stb4 (UniProt P50104)	0.435
ATTAGAAT	Stb4 (UniProt P50104)	-0.0347
ACCCGGAA	Stb4 (UniProt P50104)	0.433
CACAACCC	Stb4 (UniProt P50104)	-0.0519
ACCATACC	Stb4 (UniProt P50104)	0.044
GATCGGGC	Stb4 (UniProt P50104)	0.22
ACCAGCCG	Stb4 (UniProt P50104)	0.256
GATCGGAA	Stb4 (UniProt P50104)	0.425
CTTCCTCA	Stb4 (UniProt P50104)	-0.208
TATCGGCA	Stb4 (UniProt P50104)	0.326
AGAATGGC	Stb4 (UniProt P50104)	-0.0824
GCCCGGAC	Stb4 (UniProt P50104)	0.229
GCCCGGTA	Stb4 (UniProt P50104)	0.263
ACTTCGAA	Stb4 (UniProt P50104)	-0.167
ACTTCGGC	Stb4 (UniProt P50104)	0.392
TCCCGGAA	Stb4 (UniProt P50104)	0.407
GATCGTAA	Stb4 (UniProt P50104)	-0.0241
